Data provenance is the supplement of paper PMC10567573.

B1: DFFB (parent)
chain: TLVEAIKEQDGREVDWEYFYGLLF

Variants of: B1
Assay: protein stability index of a GFP-peptide fusion (GPS, HEK-293T) (PSI 1-6); higher = more stable;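 also: lentivirally expressed fusions sorted by FACS into six bins by GFP to DsRed ratio, PSI derived from sequencing read proportions per bin multiplied by bin number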
Conditions: c terminus: a fixed tail appended
Can you tell me protein stability index for the items I'm about to list?
Respond numerically, and do not add a unit to the figure.

If you can, please state the reported protein stability index value of R12T .
1.92

If you can, please state the reported protein stability index value of T1W .
1.65

If you can, please state the reported protein stability index value of L22I .
1.97

If you can, please state the reported protein stability index value of G11N .
2.13

If you can, please state the reported protein stability index value of F19P .
3.01

If you can, please state the reported protein stability index value of G21C .
1.72

If you can, please state the reported protein stability index value of L23A .
1.86

If you can, please state the reported protein stability index value of Y20C .
1.92

If you can, please state the reported protein stability index value of L2Q .
1.41

If you can, please state the reported protein stability index value of Y20F .
1.93

If you can, please state the reported protein stability index value of E17L .
2.18

If you can, please state the reported protein stability index value of E4T .
1.58

If you can, please state the reported protein stability index value of W16E .
2.19

If you can, please state the reported protein stability index value of E13H .
1.84

If you can, please state the reported protein stability index value of F24K .
1.79

If you can, please state the reported protein stability index value of I6A .
2.59

If you can, please state the reported protein stability index value of E8V .
1.66

If you can, please state the reported protein stability index value of V14A .
2.25

If you can, please state the reported protein stability index value of E4C .
2.92

If you can, please state the reported protein stability index value of L2V .
2.4

If you can, please state the reported protein stability index value of R12W .
1.72

If you can, please state the reported protein stability index value of K7N .
1.51
